experiment: Example 2 solubility of alkanediols in water (maximum water solubility, visual observation); assay type: physicochemical; conditions: assessed at ambient temperature after 24 h storage at 5° C.
Below, each entry is listed alongside its reported Maximum solubility in water (% by weight).
assay endpoint: Maximum solubility in water (% by weight)

| compound | value reported |
| --- | --- |
| CCCCCCCC(O)CO (centres unmarked) [1,2-nonanediol] | 0.1 |
| CCCC(O)CO (centres unmarked) [Hydrolite® 5 green, 1,2-pentanediol] | 50 |
| CCCCC(O)C(C)O (centres unmarked) [2,3-heptanediol] | 3.6 |
| CCCCCC(O)C(C)O (centres unmarked) [2,3-octanediol] | 1.5 |
| CCCCC(O)CO (centres unmarked) [Hydrolite® 6, 1,2-hexanediol] | 50 |
| CCCCCC(O)CO (centres unmarked) [1,2-heptanediol] | 2.5 |
| CCCCCCC(O)CO (centres unmarked) [Hydrolite® 8, 1,2-octanediol] | 0.5 |
| CCCCCCC(O)C(C)O (centres unmarked) [2,3-nonanediol] | 0.3 |
